I'd be grateful if you could share measured growth for these entries.
test system: HCC-2998 colon; test: NCI-60 one-dose screen, 48 h (100 = growth as untreated, 0 = no growth, -100 = all killed); settings: 10 µM unless noted
About 83,000 compounds went through this panel and 20% of them were active in at least one assay; those are over-represented in the sample as a whole.
One number for each entry, in %.

// below: answered compounds
# input Return reported growth; argument: COc1ccc(-c2cnc(-c3ccc(F)cc3)[nH]2)cc1
# output -10

# input Return reported growth; argument: [2H]c1nc(Nc2ncc(F)c(-c3cc(F)c4nc(C)n(C(C)C)c4c3)n2)c([2H])c([2H])c1CN1CCN(CC)CC1
# output 64.1

# input Return reported growth; argument: O=C(Cn1c2ccccc2c2ccncc21)N/N=C/c1cc(O)c(O)c(O)c1
# output 105

Your task in this section: give growth for each listed record.
1. CC(C)(CCN=C(N)Nc1ccccn1)c1ccc(C(F)(F)F)cc1
2. COc1cc(Cn2cc3c(c2)-c2onc(CO)c2CC3)cc(OC)c1OC
3. CC(C)(C)C(=O)/C=c1/[nH]c(=O)/c(=C/c2ccccc2O)s1
4. CN(C)c1ccc(/C=N/N=C(N)N)cc1
5. COc1ccccc1P(c1ccccc1OC)c1ccccc1OC
6. CCC1S/C(=N\N=C(/C)c2cccs2)N(c2ccccc2)C1=O (stereo unspecified)

# output
-25.1
101
77.6
68.2
-97.4
121

Your task in this section: give growth for each listed record.
1. COc1cc(NS(C)(=O)=O)ccc1Cc1c2ccccc2nc2ccccc12
2. Nc1nc(-c2cc3c(cc2Cl)NC(=O)/C3=C/c2ccc(Cl)cc2)cs1

# output
11.9
73.3
